Test system: Rattus norvegicus
Assay: Antiallergic activity in the rat PCA test following iv administration relative to M&B 22,948, the dose of which was 0.1 mg/kg for 100% inhibition
Format: functional
experimental_readout: Relative activity
I only need the number, thanks.

Noted for COc1cc(C(C)(C)C)cc(C(=O)Nc2nn[nH]n2)c1O : its Relative activity reads 0.1

Noted for CC(=O)c1cc(C#N)cc(NC(=O)c2nn[nH]n2)c1O : its Relative activity reads 10

Noted for Cc1cc(NC(=O)c2nn[nH]n2)c(O)c(-c2nn[nH]n2)c1 : its Relative activity reads 1

Noted for Cc1cc(NC(=O)c2nn[nH]n2)c(O)c(C(=O)Cc2ccccc2)c1 : its Relative activity reads 0.1

Noted for CC(=O)c1cc(S(C)(=O)=O)cc(NC(=O)c2nn[nH]n2)c1O : its Relative activity reads 2

Noted for CCc1cc(C(C)=O)c(O)c(C(=O)Nc2nn[nH]n2)c1 : its Relative activity reads 1

====

Tested on: Rattus norvegicus
Experiment: Antiallergic activity in the rat PCA test following iv administration relative to M&B 22,948, the dose of which was 0.1 mg/kg for 100% inhibition
Format: functional
Hi there, I'd appreciate the recorded Relative activity for every entry that follows.
I only need the number, thanks.

Noted for CC(=O)Nc1ccc(O)c(C(=O)Nc2nn[nH]n2)c1 : its Relative activity reads 0.01

Noted for O=C(Nc1nn[nH]n1)c1cc(Cl)ccc1O : its Relative activity reads 0.1

Noted for CS(=O)(=O)c1ccc(O)c(C(=O)Nc2nn[nH]n2)c1 : its Relative activity reads 0.04

Noted for CCCC(=O)c1cc(C)cc(NC(=O)c2nn[nH]n2)c1O : its Relative activity reads 4

Noted for COc1cc(Br)cc(C(=O)Nc2nn[nH]n2)c1O : its Relative activity reads 0.2

Noted for CCc1cc(C(=O)Nc2nn[nH]n2)c(O)c(/C(C)=N/OC)c1 : its Relative activity reads 3.5

Noted for CCC(=O)c1cc(C)cc(NC(=O)c2nn[nH]n2)c1O : its Relative activity reads 5

Noted for CCC(=O)c1cc(CC)cc(NC(=O)c2nn[nH]n2)c1O : its Relative activity reads 5

Noted for COc1cc(C(C)=O)c(O)c(C(=O)Nc2nn[nH]n2)c1 : its Relative activity reads 2

Noted for COc1cc(NC(C)=O)cc(C(=O)Nc2nn[nH]n2)c1O : its Relative activity reads 0.02

Noted for O=C(Nc1nn[nH]n1)c1ccccc1O : its Relative activity reads 0.1

Noted for COc1cc([N+](=O)[O-])cc(C(=O)Nc2nn[nH]n2)c1O : its Relative activity reads 1

====

Test system: Rattus norvegicus
Assay: Antiallergic activity in the rat PCA test following iv administration relative to M&B 22,948, the dose of which was 0.1 mg/kg for 100% inhibition
Format: functional
experimental_readout: Relative activity
I only need the number, thanks.

Noted for CCc1cc(OC)c(O)c(C(=O)Nc2nn[nH]n2)c1 : its Relative activity reads 1

Noted for C/C(=N\O)c1cc(C)cc(NC(=O)c2nn[nH]n2)c1O : its Relative activity reads 35

Noted for CC(=O)c1cc(CC(C)C)cc(C(=O)Nc2nn[nH]n2)c1O : its Relative activity reads 0.2

Noted for COc1cccc(C(=O)Nc2nn[nH]n2)c1O : its Relative activity reads 1

Noted for CC(=O)c1cc(S(N)(=O)=O)cc(C(=O)Nc2nn[nH]n2)c1O : its Relative activity reads 0.2

Noted for CC(=O)c1cc(Br)cc(C(=O)Nc2nn[nH]n2)c1O : its Relative activity reads 0.05

Noted for COc1ccc(O)c(C(=O)Nc2nn[nH]n2)c1 : its Relative activity reads 0.2

Noted for COc1cc(Br)cc(NC(=O)c2nn[nH]n2)c1O : its Relative activity reads 2

Noted for CCc1cc(NC(=O)c2nn[nH]n2)c(O)c(OC)c1 : its Relative activity reads 10

Noted for O=C(Nc1nn[nH]n1)c1cc(C(F)(F)F)ccc1O : its Relative activity reads 0.02

Noted for N#Cc1ccc(O)c(C(=O)Nc2nn[nH]n2)c1 : its Relative activity reads 0.5

Noted for Cc1cc(NC(=O)c2nn[nH]n2)c(O)c(C(=O)C2CC2)c1 : its Relative activity reads 5
